- Tested System: T1, human BCMA-hFc kih monovalent recombinant protein (human, UniProt P0DOX5 223-449 = IgG part)
- T1 construct: Knob-into-hole heterodimer with one BCMA arm, expressed in HEK293E; also called human BCMA-hFc recombinant protein
- Protocol Description: SPR (Biacore T200), BCMA-hFc captured on Protein A chip, Fab as analyte, 1:1 Langmuir
- Source text: Kinetic constants were fitted using Biacore T200 evaluation software with a Langmuir 1:1 kinetics model.
Measure: kon (M⁻¹ s⁻¹)

>>> val("38D9 Fab (Fab, V domains shown, Murine BCMA Fab, Ni-NTA purified) VH: EVQLQQSGPELKKPGETVKISCKASGYIFTNFGMNWVRQAPGKALKWMGWINTYTGEQIYADDFKGRFAFSLETSASTAYLQINNLKNEDTATYFCARGEIYYGYDVGFVYWGQGTLVTVSA VL: DIVLTQSPASLTVSLGQRATISCGASKSVSTSGYSYMHWYQQKPGQPPKLLIYLGSDLESGVPARFSGSGSGTDFTLNIHPVEEEDAATYYCQHSRELPWTFGGGTKLEIK")
59100
